Entries and their EC50
- Assay System: S1P1/EDG1 (Homo sapiens, UniProt P21453)
- Sequence (P21453 whole entry): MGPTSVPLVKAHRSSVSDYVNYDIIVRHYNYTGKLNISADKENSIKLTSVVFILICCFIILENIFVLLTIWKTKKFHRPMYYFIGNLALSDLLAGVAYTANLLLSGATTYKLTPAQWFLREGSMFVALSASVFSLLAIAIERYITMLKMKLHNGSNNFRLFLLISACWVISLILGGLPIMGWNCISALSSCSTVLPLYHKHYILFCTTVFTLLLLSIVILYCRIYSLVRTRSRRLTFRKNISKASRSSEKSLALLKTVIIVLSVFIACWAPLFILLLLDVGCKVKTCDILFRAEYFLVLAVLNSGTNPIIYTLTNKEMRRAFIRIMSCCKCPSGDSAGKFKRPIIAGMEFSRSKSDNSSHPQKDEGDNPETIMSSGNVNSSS
- Run Description: S1P1 CRE-bla CHOK1 reporter assay, inhibition of Forskolin induced cAMP
- Type: cell-based
- Recorded Conditions: CRE-bla CHOK1 cells, 2 μM Forskolin; read-out: S1P1 ACTIVITY (agonist activity)
- Excerpt: Generation of S1P1-Mediated Inhibition of cAMP Reporter Assay S1P1/pcDNA3.1 was transfected into the CRE-bla CHO K1 (Invitrogen) cell line, and stable single cell clones were selected using standard techniques. S1P1 CRE-Bla CHOK1 Reporter Assay—Characterization of S1P1 Agonists […]

{"Molecule": "CC(C)Oc1ccc(-c2nc(-c3cccc4c3CC[C@H]4NS(C)(=O)=O)no2)cc1C#N [Compound 70]", "Assay System": "S1P1/EDG1 (Homo sapiens, UniProt P21453)", "EC50": "0.05 to 0.5 nM"}
{"Molecule": "CC(C)Oc1ccc(-c2nc(-c3cccc4c3CCC4NC[C@@H](C)O)no2)cc1C#N (stereo partly shown) [Compound 42]", "Assay System": "S1P1/EDG1 (Homo sapiens, UniProt P21453)", "EC50": "0.5 to 5 nM"}
{"Molecule": "CC(C)Oc1ccc(-c2nc(-c3cccc4c3CCC4NC[C@H](C)O)no2)cc1C#N (stereo partly shown) [Compound 43]", "Assay System": "S1P1/EDG1 (Homo sapiens, UniProt P21453)", "EC50": "0.05 to 0.5 nM"}
{"Molecule": "CNCCS(=O)(=O)N[C@@H]1CCc2c(-c3noc(-c4ccc(OC(C)C)c(C#N)c4)n3)cccc21 [Compound 74]", "Assay System": "S1P1/EDG1 (Homo sapiens, UniProt P21453)", "EC50": "0.05 to 0.5 nM"}
{"Molecule": "CC(C)Oc1ccc(-c2nc(-c3cccc4c3CC[C@H]4NS(=O)(=O)CCN(C)C)no2)cc1C#N [Compound 77]", "Assay System": "S1P1/EDG1 (Homo sapiens, UniProt P21453)", "EC50": "0.05 to 0.5 nM"}
{"Molecule": "CCOc1ccc(-c2nc(-c3cccc4c3CC[C@@H]4O)no2)cc1[N+](=O)[O-] [Compound 12]", "Assay System": "S1P1/EDG1 (Homo sapiens, UniProt P21453)", "EC50": "0.5 to 5 nM"}
{"Molecule": "CC(C)Oc1ccc(-c2nc(-c3cccc4c3CCC4NC[C@H](O)CO)no2)cc1C#N (stereo partly shown) [Compound 41]", "Assay System": "S1P1/EDG1 (Homo sapiens, UniProt P21453)", "EC50": "0.05 to 0.5 nM"}

###

- Assay System: S1P1/EDG1 (Homo sapiens, UniProt P21453)
- Run Description: S1P1 CRE-bla CHOK1 reporter assay, inhibition of Forskolin induced cAMP
- Type: cell-based
- Recorded Conditions: CRE-bla CHOK1 cells, 2 μM Forskolin; read-out: S1P1 ACTIVITY (agonist activity)
Entries and their EC50
Quantity Name: EC50

{"Molecule": "CC(C)Oc1ccc(-c2nc(-c3cccc4c3CC[C@H]4NC(=O)c3ccc(Br)cc3)no2)cc1C#N [Compound 122]", "Assay System": "S1P1/EDG1 (Homo sapiens, UniProt P21453)", "Quantity Name": "EC50", "Result Value": "> 5 nM"}
{"Molecule": "CC(C)Oc1ccc(-c2nc(-c3cccc4c3CC[C@@H]4N(CCO)S(=O)(=O)c3ccccc3)no2)cc1C#N [Compound 117]", "Assay System": "S1P1/EDG1 (Homo sapiens, UniProt P21453)", "Quantity Name": "EC50", "Result Value": "> 5 nM"}
{"Molecule": "CC(C)Oc1ccc(-c2nc(-c3cccc4c3CC[C@@H]4NS(=O)(=O)CCNCCO)no2)cc1C#N [Compound 180]", "Assay System": "S1P1/EDG1 (Homo sapiens, UniProt P21453)", "Quantity Name": "EC50", "Result Value": "0.05 to 0.5 nM"}
{"Molecule": "CC(C)Oc1ccc(-c2nc(-c3cccc4c3CC[C@@H]4NC(=O)N(C)C)no2)cc1C#N [Compound 120]", "Assay System": "S1P1/EDG1 (Homo sapiens, UniProt P21453)", "Quantity Name": "EC50", "Result Value": "0.05 to 0.5 nM"}
{"Molecule": "COCCN[C@@H]1CCc2c(-c3noc(-c4ccc(OC(C)C)c(C#N)c4)n3)cccc21 [Compound 88]", "Assay System": "S1P1/EDG1 (Homo sapiens, UniProt P21453)", "Quantity Name": "EC50", "Result Value": "0.5 to 5 nM"}
{"Molecule": "CC(C)Oc1ccc(-c2nc(-c3cccc4c3CC[C@H]4NS(=O)(=O)CCN3CCC3)no2)cc1C#N [Compound 168]", "Assay System": "S1P1/EDG1 (Homo sapiens, UniProt P21453)", "Quantity Name": "EC50", "Result Value": "0.05 to 0.5 nM"}
{"Molecule": "CC(C)Oc1ccc(-c2nc(-c3cccc4c3CC[C@@H]4NS(=O)(=O)CCN3CCNCC3)no2)cc1C#N [Compound 179]", "Assay System": "S1P1/EDG1 (Homo sapiens, UniProt P21453)", "Quantity Name": "EC50", "Result Value": "0.5 to 5 nM"}

###

- Assay System: S1P1/EDG1 (Homo sapiens)
- Run Description: S1P1 CRE-bla CHOK1 reporter assay, inhibition of Forskolin induced cAMP
- Type: cell-based
- Recorded Conditions: CRE-bla CHOK1 cells, with Forskolin; read-out: S1P1 agonist value (EC50)
pEC50: −log10 of the molar value.
Quantity Name: pEC50

{"Compound": "CC(C)Oc1ccc(-c2nc(-c3cccc4c3CCC4NS(=O)(=O)CCO)no2)cc1C#N (stereo in doubt) [Compound 186]", "Quantity Name": "pEC50", "Result Value": 10.30}

Hey, just so you know, these numbers are from patent US20170165236A1.
